B1: Azoarcus group I ribozyme (parent)
chain: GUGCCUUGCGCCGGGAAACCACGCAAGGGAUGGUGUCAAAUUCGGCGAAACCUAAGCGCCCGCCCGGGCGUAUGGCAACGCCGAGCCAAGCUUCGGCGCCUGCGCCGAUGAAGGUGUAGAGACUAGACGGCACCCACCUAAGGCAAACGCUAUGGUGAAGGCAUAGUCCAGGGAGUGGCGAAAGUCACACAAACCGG

- Variants of: B1
- Assay Info: reverse-splicing fitness (ratio to wild type); higher = more active; in vitro selection; Mg2+ level not given

- Variant String: "C82U A111U A120G C169U U176G"
  reverse-splicing fitness: 0.00594
- Variant String: "C82A A111G A120G A145G C150A C169G U176G"
  reverse-splicing fitness: 0.00592
- Variant String: "C82A A111U A120U C150A C169G U176G"
  reverse-splicing fitness: 0.00222
- Variant String: "A111C A120C A145U C150U U176G"
  reverse-splicing fitness: 0.0336
